- assayTarget: GST‐LC3B (human, UniProt Q9GZQ8 1-120)
- protocolNotes: AlphaScreen or HTRF
measureName: IC50 (nM)
Write the number in nM without appending the unit.

Task: Value lookup for IC50; key = SGGDDDWTHLS [LIRtide]
Result: 1700
